# system: T1, transferrin (human, UniProt P02787 20-698)
# T1 construct: also called TRF; pooled human transferrin (Sigma)
# T1 sequence (P02787 20-698 limits assumed): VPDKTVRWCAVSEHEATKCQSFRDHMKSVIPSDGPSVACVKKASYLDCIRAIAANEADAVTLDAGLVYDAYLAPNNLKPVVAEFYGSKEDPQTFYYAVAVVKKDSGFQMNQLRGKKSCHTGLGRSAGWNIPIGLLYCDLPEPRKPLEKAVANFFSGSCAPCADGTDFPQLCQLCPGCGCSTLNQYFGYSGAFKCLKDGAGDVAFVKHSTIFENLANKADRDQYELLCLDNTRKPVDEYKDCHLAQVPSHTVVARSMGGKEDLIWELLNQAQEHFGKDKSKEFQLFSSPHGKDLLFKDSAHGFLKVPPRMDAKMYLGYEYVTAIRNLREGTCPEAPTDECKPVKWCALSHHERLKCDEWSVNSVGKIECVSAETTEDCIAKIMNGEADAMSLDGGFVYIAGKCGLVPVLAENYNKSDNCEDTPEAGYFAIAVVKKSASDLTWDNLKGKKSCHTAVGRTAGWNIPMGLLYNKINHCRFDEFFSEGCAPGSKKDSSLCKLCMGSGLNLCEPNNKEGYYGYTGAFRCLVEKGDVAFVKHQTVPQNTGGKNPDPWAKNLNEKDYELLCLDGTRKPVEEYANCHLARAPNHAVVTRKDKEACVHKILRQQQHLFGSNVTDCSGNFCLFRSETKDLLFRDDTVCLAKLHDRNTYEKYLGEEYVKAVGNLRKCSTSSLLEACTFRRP
# methodSummary: peptide microarray with organic prewash, Alexa 555 transferrin with Alexa 647 E. coli lysate; rank by the score of Example 2
testReadout: Rank -- prewash (rank)
Numbers only, in rank.

Task: Report Rank -- prewash for KEDNPGYSSEQDYNKLDGSC (20-mer ending GSC; on arrays attached by the C-terminal Cys) [TRF19] please.
Output: 9600

Task: If you can, please state the reported Rank -- prewash value of FRGWAHIFFGPHVIYRGGSC (20-mer ending GSC) [TRF23] .
Output: 2090

Task: Please give the measured Rank -- prewash for this binder: QYHHFMNLKRQGRAQAYGSC (20-mer ending GSC) [TRF21]
Output: 5

Each of the following entries comes with a recorded value; kindly state Rank -- prewash for each.
1. GQTQFAMHRFQQWYKIKGSC (20-mer ending GSC) [TRF20]
2. AHKVVPQRQIRHAYNRYGSC (20-mer ending GSC; also called TRF26 Lead Peptide) [TRF26]
3. LDPLFNTSIMVNWHRWMGSC [TRF27]
4. HAYKGPGDMRRFNHSGMGSC (20-mer ending GSC) [TRF22]
5. APYAPQQIHYWSTLGFKGSC (20-mer ending GSC) [TRF25]
6. SVKPWRPLITGNRWLNSGSC (20-mer ending GSC) [TRF24]
7. RFQLTQHYAQFWGHYTWGSC (20-mer ending GSC) [TRF28]

Output:
289
436
3320
61
603
958
712
